# protocol-notes: PS levels in ocular tissues (HPLC) after topical 3.5% PS Vitamin E TPGS solution
# Assay type: in vivo, New Zealand white rabbits
# measurement-setup: New Zealand white, rabbit, sclera, 3.5 % PS solution (eye drops), 3 h, read-out: PS in Sclera
value-type: concentration at 3 h (µM)

molecule="CCOP(=O)(OCC)OCCCCOC(=O)CC1=C(C)/C(=C/c2ccc([S+](C)[O-])cc2)c2ccc(F)cc21 (stereo not shown)" value_measured=0.2

----------
# protocol-notes: Corneal levels of a PS 0.2% solution formulation after single topical application
# Type: in vivo
# measurement-setup: cornea, topical or ocular, 0.2 % PS solution (single application, volume not stated), mean ± SEM
# Description: Another embodiment of this type of formulation is: 0.1% PS, 10% HP-β-CD, 4% Tween 80, 2.5% Vitamin E TPGS, 1.4% polyvinyl alcohol (PVA) (13,000-26,000 molecular weight), 0.001% polyquad. Another embodiment of this type of formulation is: 0.2% PS; 10% HP-β-CD; 4% Tween 80; 2.5% Vitamin E TPGS; 1.4% polyvinyl alcohol (PVA) (13,000-26,000 molecular weight); and 0.001% polyquad. […] The corneal levels of a PS 0.2% formulation were determined after its single topical application to the surface of the eye.
value-type: Cmax (µM)

molecule="CCOP(=O)(OCC)OCCCCOC(=O)CC1=C(C)/C(=C/c2ccc([S+](C)[O-])cc2)c2ccc(F)cc21 (stereo not shown) [PS, phosphosulindac]" unit_string=µM value_measured=63.4

----------
# protocol-notes: Biodistribution of PS nanoparticles after intravitreal injection
# Type: in vivo, New Zealand white rabbits
# measurement-setup: New Zealand white, rabbit, aqueous humor, other: intravitreal, 2% PS Nanoparticle Soln., 0.5 h, read-out: PS in Aqueous humor
value-type: concentration at 0.5 h (nM)

molecule="CCOP(=O)(OCC)OCCCCOC(=O)CC1=C(C)/C(=C/c2ccc([S+](C)[O-])cc2)c2ccc(F)cc21 (stereo not shown)" unit_string=nM value_measured=0

----------
# protocol-notes: PS biodistribution after topical alternative sodium alginate-based in-situ gel
# Type: in vivo, New Zealand white rabbits
# measurement-setup: New Zealand white, rabbit, cornea, 3 % PS in formulation, 3 h, read-out: PS in Cornea
value-type: concentration at 3 h (µM)

compound="CCOP(=O)(OCC)OCCCCOC(=O)CC1=C(C)/C(=C/c2ccc([S+](C)[O-])cc2)c2ccc(F)cc21 (stereo not shown)" value_type="concentration at 3 h" value_measured=5

----------
# protocol-notes: PS biodistribution after topical alternative sodium alginate-based in-situ gel
# Format: in vivo, New Zealand white rabbits
# measurement-setup: New Zealand white, rabbit, conjunctiva, 3 % PS in formulation, 3 h, read-out: PS in Conjunctiva
value-type: concentration at 3 h (nM)

molecule="CCOP(=O)(OCC)OCCCCOC(=O)CC1=C(C)/C(=C/c2ccc([S+](C)[O-])cc2)c2ccc(F)cc21 (stereo not shown)" value_type="concentration at 3 h" value_measured=2100

----------
# protocol-notes: Biodistribution of PS nanoparticles after intravitreal injection
# Assay type: in vivo, New Zealand white rabbits
# measurement-setup: New Zealand white, rabbit, vitreous body, other: intravitreal, 0.2% PS Nanoparticle Soln., 0.5 h, read-out: PS in Vitreous body
value-type: concentration at 0.5 h (µM)

compound="CCOP(=O)(OCC)OCCCCOC(=O)CC1=C(C)/C(=C/c2ccc([S+](C)[O-])cc2)c2ccc(F)cc21 (stereo not shown)" value_measured=198

----------
# protocol-notes: Ocular PK study of PS nanoparticles (mPEG-PLA), topical eye drops
# Assay type: in vivo, New Zealand white rabbits
# Set-up: concentration or dose not given beside the values
# measurement-setup: New Zealand white, rabbit, ciliary body, topical or ocular, read-out: AUC0-16 h, Ciliary body
value-type: AUC(0-t)

compound="CCOP(=O)(OCC)OCCCCOC(=O)CC1=C(C)/C(=C/c2ccc([S+](C)[O-])cc2)c2ccc(F)cc21 (stereo not shown) [PS, phosphosulindac]" value_measured="3.6 µM·h"

----------
# protocol-notes: Ocular PK study of PS nanoparticles (mPEG-PLA), topical eye drops
# Assay type: in vivo, New Zealand white rabbits
# Parameters: concentration or dose not given beside the values
# measurement-setup: New Zealand white, rabbit, cornea, topical or ocular, read-out: AUC0-16 h, Cornea
value-type: AUC(0-t) (µM·h)

compound="CCOP(=O)(OCC)OCCCCOC(=O)CC1=C(C)/C(=C/c2ccc([S+](C)[O-])cc2)c2ccc(F)cc21 (stereo not shown) [PS, phosphosulindac]" value_measured=156

----------
# protocol-notes: PS levels in ocular tissues (HPLC) after topical 3.5% PS Vitamin E TPGS solution
# Format: in vivo, New Zealand white rabbits
# measurement-setup: New Zealand white, rabbit, lens, 3.5 % PS solution (eye drops), 3 h, read-out: PS in Lens
value-type: concentration at 3 h (nM)

compound="CCOP(=O)(OCC)OCCCCOC(=O)CC1=C(C)/C(=C/c2ccc([S+](C)[O-])cc2)c2ccc(F)cc21 (stereo not shown)" value_measured=100

----------
# protocol-notes: Biodistribution of PS nanoparticles after intravitreal injection
# Type: in vivo, New Zealand white rabbits
# measurement-setup: New Zealand white, rabbit, cornea, other: intravitreal, 2% PS Nanoparticle Soln., 1 h, read-out: PS in Cornea
value-type: concentration at 1 h (µM)

compound="CCOP(=O)(OCC)OCCCCOC(=O)CC1=C(C)/C(=C/c2ccc([S+](C)[O-])cc2)c2ccc(F)cc21 (stereo not shown)" unit_string=µM value_measured=147

----------
# protocol-notes: PS levels in ocular tissues (HPLC) after topical 3.5% PS Vitamin E TPGS solution
# Assay type: in vivo, New Zealand white rabbits
# measurement-setup: New Zealand white, rabbit, lens, 3.5 % PS solution (eye drops), 1 h, read-out: PS in Lens
value-type: concentration at 1 h (nM)

compound="CCOP(=O)(OCC)OCCCCOC(=O)CC1=C(C)/C(=C/c2ccc([S+](C)[O-])cc2)c2ccc(F)cc21 (stereo not shown)" value_measured=1800

----------
# protocol-notes: Corneal levels of a PS 0.2% solution formulation after single topical application
# Format: in vivo
# measurement-setup: cornea, topical or ocular, 0.2 % PS solution (single application, volume not stated), mean ± SEM, read-out: t1/2, Cornea (converted)
value-type: half-life (min)

molecule="CCOP(=O)(OCC)OCCCCOC(=O)CC1=C(C)/C(=C/c2ccc([S+](C)[O-])cc2)c2ccc(F)cc21 (stereo not shown)" value_type=half-life unit_string=min value_measured=42

----------
# protocol-notes: PS levels in ocular tissues (HPLC) after topical 3.5% PS Vitamin E TPGS solution
# Assay type: in vivo, New Zealand white rabbits
# measurement-setup: New Zealand white, rabbit, conjunctiva, 3.5 % PS solution (eye drops), 3 h, read-out: PS in Conjunctiva
value-type: concentration at 3 h

molecule="CCOP(=O)(OCC)OCCCCOC(=O)CC1=C(C)/C(=C/c2ccc([S+](C)[O-])cc2)c2ccc(F)cc21 (stereo not shown) [PS, phosphosulindac]" value_type="concentration at 3 h" value_measured="500 nM"

----------
The molecules listed here are annotated with their Cmax, cornea.
# protocol-notes: Ocular PK study of PS nanoparticles (mPEG-PLA), topical eye drops
# Format: in vivo, New Zealand white rabbits
# measurement-setup: PS and its metabolites
value-type: Cmax, cornea (nM)

molecule=CC1=C(CC(=O)O)c2cc(F)ccc2/C1=C\c1ccc(S(C)(=O)=O)cc1 value_type="Cmax, cornea" unit_string=nM value_measured=1300
molecule="CC1=C(CC(=O)O)c2cc(F)ccc2/C1=C\\c1ccc([S+](C)[O-])cc1 (stereo not shown) [sulindac, reference compound]" value_type="Cmax, cornea" unit_string=nM value_measured=3600
molecule="CSc1ccc(/C=C2/C(C)=C(CC(=O)O)c3cc(F)ccc32)cc1 [sulindac sulfide]" value_type="Cmax, cornea" unit_string=nM value_measured=600

----------
# protocol-notes: Biodistribution of PS nanoparticles after intravitreal injection
# Assay type: in vivo, New Zealand white rabbits
# measurement-setup: New Zealand white, rabbit, aqueous humor, other: intravitreal, 0.2% PS Nanoparticle Soln., 0.5 h, read-out: PS in Aqueous humor
value-type: concentration at 0.5 h (nM)

compound="CCOP(=O)(OCC)OCCCCOC(=O)CC1=C(C)/C(=C/c2ccc([S+](C)[O-])cc2)c2ccc(F)cc21 (stereo not shown) [PS, phosphosulindac]" unit_string=nM value_measured=0

----------
# protocol-notes: PS levels in ocular tissues (HPLC) after topical 3.5% PS Vitamin E TPGS solution
# Format: in vivo, New Zealand white rabbits
# measurement-setup: New Zealand white, rabbit, lacrimal gland, 3.5 % PS solution (eye drops), 3 h, read-out: PS in Lacrimal gland
value-type: concentration at 3 h (nM)

compound="CCOP(=O)(OCC)OCCCCOC(=O)CC1=C(C)/C(=C/c2ccc([S+](C)[O-])cc2)c2ccc(F)cc21 (stereo not shown)" value_measured=500
